# target-entity: SOAT1 (Homo sapiens)
# Construct: endogenous full-length protein in THP-1 cells, identified by mass spectrometry
# Sequence (P35610 whole entry): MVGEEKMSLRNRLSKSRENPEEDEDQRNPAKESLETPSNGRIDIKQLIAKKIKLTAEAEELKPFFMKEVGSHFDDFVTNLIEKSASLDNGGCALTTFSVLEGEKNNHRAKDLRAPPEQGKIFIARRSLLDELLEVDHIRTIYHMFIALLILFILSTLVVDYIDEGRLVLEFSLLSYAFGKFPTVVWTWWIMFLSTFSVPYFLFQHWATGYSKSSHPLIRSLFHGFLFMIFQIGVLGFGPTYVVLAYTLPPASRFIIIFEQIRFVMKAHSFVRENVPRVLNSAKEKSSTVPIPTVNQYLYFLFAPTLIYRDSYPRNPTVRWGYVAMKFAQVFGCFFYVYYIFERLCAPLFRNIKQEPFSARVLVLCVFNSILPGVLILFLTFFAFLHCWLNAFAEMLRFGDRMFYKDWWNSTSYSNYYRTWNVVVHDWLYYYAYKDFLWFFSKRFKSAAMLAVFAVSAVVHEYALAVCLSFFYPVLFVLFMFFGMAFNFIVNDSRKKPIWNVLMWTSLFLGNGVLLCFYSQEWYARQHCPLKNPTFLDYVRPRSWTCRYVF
# experimental-protocol: 2D thermal proteome profiling (TMT mass spectrometry)
# Type: cell-based
# test-settings: intact THP-1 cells, […] min, […] °C; stabilization; text value approximate
pEC50: −log10 of the molar value.
endpoint-name: pEC50

Specify measured pEC50 for Cc1sc2c(c1C)C(c1ccc(Cl)cc1)=N[C@@H](CC(=O)OC(C)(C)C)c1nnc(C)n1-2 [JQ1] . ~6.00

Data origin, for the record: paper PMC5871718
